# Tested on: LG0567-F671-PDC KRAS tumor spheroid viability;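 also: drug exposure lasted seven days after spheroids formed for three days; 100% = DMSO vehicle control viability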
# METHOD NOTES: Anticancer human tumor LG0567-F671-PDC patient-derived lung adenocarcinoma cell line growth inhibition [KRAS2]
# MEASUREMENT CONDITIONS: second compound 0.1 µM; first compound 0.316 µM; active compounds read low; spheroids with HUVEC and MSC
Would you mind telling me the reported viability, T/C of each entry?

Respond only with viability, T/C recorded for CC(=O)OC12COC1CC(O)C1(C)C(=O)C(O)C3=C(C)C(OC(=O)C(O)C(NC(=O)OC(C)(C)C)c4ccccc4)CC(O)(C(OC(=O)c4ccccc4)C21)C3(C)C (stereo unspecified) + CNCc1ccccc1-c1csc(C(C)Nc2nc(C)nc3cc(OC)c(OC)cc23)c1
47.1%

Provide only the value of recorded viability, T/C for CC1OCC2(CCN(c3cnc(Sc4ccnc(N)c4Cl)c(N)n3)CC2)C1N (stereo unspecified) + C=CC(=O)N1CCN(c2nc(OCC3CCCN3C)nc3c2CCN(c2cccc4cccc(C)c24)C3)CC1CC#N
13.5%

Assign viability, T/C to the following record: O=C(c1cc(Cc2n[nH]c(=O)c3ccccc23)ccc1F)N1CCN(C(=O)C2CC2)CC1 + C=CC(=O)N1CCN(c2nc(=O)n(-c3c(C)ccnc3C(C)C)c3nc(-c4c(O)cccc4F)c(F)cc23)C(C)C1
23.1%

Please look at this compound and report its viability, T/C: CC1(C)CCC(CN2CCN(c3ccc(C(=O)NS(=O)(=O)c4ccc(NCC5CCOCC5)c([N+](=O)[O-])c4)c(Oc4cnc5[nH]ccc5c4)c3)CC2)=C(c2ccc(Cl)cc2)C1 + C=CC(=O)N1CCN(c2nc(=O)n(-c3c(C)ccnc3C(C)C)c3nc(-c4c(O)cccc4F)c(F)cc23)C(C)C1
26.2%

For CCNC(=O)CC1N=C(c2ccc(Cl)cc2)c2cc(OC)ccc2-n2c(C)nnc21 (stereo unspecified) + C=CC(=O)N1CCN(c2nc(=O)n(-c3c(C)ccnc3C(C)C)c3nc(-c4c(O)cccc4F)c(F)cc23)C(C)C1 , write its viability, T/C.
24.3%

State its viability, T/C for this compound: CC1(C)CCC(CN2CCN(c3ccc(C(=O)NS(=O)(=O)c4ccc(NCC5CCOCC5)c([N+](=O)[O-])c4)c(Oc4cnc5[nH]ccc5c4)c3)CC2)=C(c2ccc(Cl)cc2)C1 + CC1OCC2(CCN(c3cnc(Sc4ccnc(N)c4Cl)c(N)n3)CC2)C1N
41.8%

Supply reported viability, T/C belonging to this compound: COC(=O)c1ccc2c(C(=Nc3ccc(N(C)C(=O)CN4CCN(C)CC4)cc3)c3ccccc3)c(O)[nH]c2c1 + CC1OCC2(CCN(c3cnc(Sc4ccnc(N)c4Cl)c(N)n3)CC2)C1N
47.3%

Answer with reported viability, T/C of COC(=O)c1ccc2c(C(=Nc3ccc(N(C)C(=O)CN4CCN(C)CC4)cc3)c3ccccc3)c(O)[nH]c2c1 + C=CC(=O)N1CCN(c2nc(=O)n(-c3c(C)ccnc3C(C)C)c3nc(-c4c(O)cccc4F)c(F)cc23)C(C)C1
25.9%

Item COc1cc2nccc(Oc3ccc(NC(=O)C4(C(=O)Nc5ccc(F)cc5)CC4)cc3)c2cc1OC + COc1cc2nc(C)nc(NC(C)c3cc(N)cc(C(F)(F)F)c3)c2cc1OC1CCOC1 : provide viability, T/C
56.5%

Identify measured viability, T/C corresponding to CC1(C)CCC(CN2CCN(c3ccc(C(=O)NS(=O)(=O)c4ccc(NCC5CCOCC5)c([N+](=O)[O-])c4)c(Oc4cnc5[nH]ccc5c4)c3)CC2)=C(c2ccc(Cl)cc2)C1 + COc1cc2nc(C)nc(NC(C)c3cc(N)cc(C(F)(F)F)c3)c2cc1OC1CCOC1
59%

Tell me its viability, T/C given CCN1CCN(Cc2ccc(Nc3ncc(F)c(-c4cc(F)c5nc(C)n(C(C)C)c5c4)n3)nc2)CC1 + COc1cc2nc(C)nc(NC(C)c3cc(N)cc(C(F)(F)F)c3)c2cc1OC1CCOC1 as the entry.
54.8%

Cited source: PubChem BioAssay AID1963856
